- test-details: Toxicity liver stage against HepG2, at 10uM
- Format: cell-based
- Set-up: test concentration 10 uM, cell line HepG2-A16-CD81EGFP
- reported-conditions: human, HepG2-A16-CD81EGFP cells; read-out: INHIBITION
measured-metric: cytotoxicity at 10 µM (%)

1) Cc1nc(CNC(=O)c2ccc3c(c2)nc(N2CCOCC2)n3C)cs1 :: -1.76
2) CCOc1ccccc1C(=O)NCc1nncn1C1CC1 :: 3.3
3) Cc1ccccc1C(CC(=O)NCc1n[nH]c(N)n1)c1ccccc1 (stereo not given) :: 8.8
4) O=C(NCC1CC1)C12CC(CN1Cc1nccs1)C2 :: -4.6
5) CCOc1cc(CN(C)CC(C)(C)O)ccc1OC(F)F :: 2.31
6) Cc1nc(CN2CCCC2c2noc(C3CC3)n2)nc2ccccc12 (stereo not given) :: -19
7) CO[C@@H]1CC[C@H]2[C@H]1OCCN2Cc1ccc(F)c(F)c1 :: 4.33
8) CS(=O)(=O)N1CCOCC12CCN(Cc1ccc(F)cc1)CC2 :: 3.39
9) Cc1nc(C(C)C)sc1C(=O)N1CCC(C(N)=O)CC1 :: 1.68
10) O=C(N1CCOCC1)N1C[C@@H]2CC[C@H]1CN(C1Cc3ccccc3C1)C2 :: -4.55
11) O=C(NCCn1cc(Cl)cn1)C1CCN(C(=O)C2CC2)CC1 :: -50.5
12) CCCN1CCCN(C(=O)c2ccc(Oc3cccnc3)cc2)CC1 :: -46.9
13) Cc1ccc(S(=O)(=O)N2CC(C)Oc3ncccc32)c(C)c1 (stereo not given) :: 5.35
14) Cc1cc(CC(=O)NCC(O)COc2ccc(F)c(F)c2)no1 (stereo not given) :: -5.03
15) Cc1noc(C)c1C(=O)N(C)C(C)c1ccc(S(C)(=O)=O)cc1 (stereo not given) :: 4.96
